Source listed as ChEMBL document CHEMBL3871298.

- assay.target: Heat shock protein HSP 90-alpha (Homo sapiens, UniProt P07900)
- test: Binding affinity to human HSP90alpha isoform 1 N-terminal ATP binding domain (9 to 236 residues) expressed in Escherichia coli BL21(DE3) assessed as melting temperature at 100 uM by SYPRO orange dye-based thermal shift assay
property.name: Tm (°C)
Numbers only here, please. The scale is °C.

[
  {
    "molecule": "Nc1ncnc2c1ncn2[C@@H]1O[C@H](COP(=O)(O)OP(=O)(O)O)[C@@H](O)[C@H]1O",
    "Tm, °C": 36.7
  },
  {
    "molecule": "N=c1oc2cc(O)ccc2cc1C(=O)NCc1ccccc1",
    "Tm, °C": 35.5
  },
  {
    "molecule": "O=C(O)COc1cc(OCC(=O)O)c2c(-c3ccccc3)cc(=O)oc2c1",
    "Tm, °C": 32.4
  }
]

q: Give the measured Tm for `COc1ccc2[nH]cc(C(=O)CN3C[C@@H]4C[C@@H](C3)c3cccc(=O)n3C4)c2c1`
a: 33.1

q: Give the measured Tm for `O=C(Cc1ccc2c(c1)OCCCO2)c1ccc(O)c(O)c1O`
a: 37.5

q: Give the measured Tm for O=C(O)C1Cc2c([nH]c3ccccc23)C(c2ccc(O)c(O)c2)N1 (configuration not stated)
a: 31.3

q: Give the measured Tm for `O=c1c2[nH]c3ccccc3c2ncn1CCc1ccc(O)c(O)c1`
a: 36.5
